# Tested on: CD2F1 mice, L1210 leukemia ip, survival T/C
# MEASUREMENT NOTES: NCI In Vivo Anticancer Drug Screen. Data for tumor model L1210 Leukemia (intraperitoneal) in CD2F1 (CDF1) mice
# ASSAY CONTEXT: endpoint: mean survival time; dose: 25.0 mg/kg/injection; schedule: Q01DX005 (ip); vehicle: water; higher = longer survival
Inconclusive results and toxic doses are left out.
Recorded T/C values for a group of molecules are listed next.

Some molecules with recorded T/C:
molecule="NC(=O)c1ncn(C2OC(COP(=O)(O)O)C(O)C2O)n1 (configuration not stated)" measurement_type=T/C value="101 % of control"
molecule="Cc1cc(C(O)CNCCn2cnc3c2c(=O)n(C)c(=O)n3C)ccc1O (configuration not stated)" measurement_type=T/C value="100 % of control"
molecule="Cn1c(=O)c2c(nc(N3CCOCC3)n2CCCNCC(O)c2cc(O)cc(O)c2)n(C)c1=O (configuration not stated)" measurement_type=T/C value="96 % of control"
molecule="CC(=O)Nc1cc(Cl)c2ncn(C3OC(CO)C(O)C3O)c2n1 (configuration not stated)" measurement_type=T/C value="95 % of control"
molecule="Nc1ncnc2c1nc(Cl)n2C1OC2COP(=O)(O)OC2C1O (configuration not stated)" measurement_type=T/C value="100 % of control"

IN: Query (molecule): Cn1nc(CC#N)c2c(N)ncnc21 ; field requested: T/C
OUT: 93 % of control

IN: Query (molecule): NC(=O)c1ncn(C2OC(COP(=O)(O)O)C(O)C2O)c1N (configuration not stated) ; field requested: T/C
OUT: 96 % of control

* * *

# Tested on: CD2F1 mice, L1210 leukemia ip, survival T/C
# MEASUREMENT NOTES: NCI In Vivo Anticancer Drug Screen. Data for tumor model L1210 Leukemia (intraperitoneal) in CD2F1 (CDF1) mice
# ASSAY CONTEXT: endpoint: mean survival time; dose: 100.0 mg/kg/injection; schedule: Q04DX002 (ip); vehicle: saline with Tween-80; higher = longer survival
Toxic doses and inconclusive results are not listed.
MEASUREMENT TYPE: T/C

molecule="CC12CCC(=O)C=C1CC(CC(=O)O)CC2 (stereo unspecified)" value="100 % of control"
molecule=CCCCC(=O)OCC[N+](C)(C)C value="100 % of control"
molecule="Oc1ccccc1C=NCC1CCCC[N-]1.Oc1ccccc1C=NCC1CCCC[N-]1.[Ni+2] (stereo unspecified)" value="96 % of control"
molecule="COc1ccc2c(c1)CCC1C(=O)NN=C21 (stereo unspecified)" value="103 % of control"
molecule=NC(=S)S value="102 % of control"

# input for lookup
IN: Lab request: please report T/C under test system CD2F1 mice, L1210 leukemia ip, survival T/C for O=C(CCC1CC=CCC1)c1ccccc1 (stereo unspecified)
OUT: 90 % of control

* * *

# Tested on: CD2F1 mice, L1210 leukemia ip, survival T/C
# MEASUREMENT NOTES: NCI In Vivo Anticancer Drug Screen. Data for tumor model L1210 Leukemia (intraperitoneal) in CD2F1 (CDF1) mice
# ASSAY CONTEXT: endpoint: mean survival time; dose: 12.5 mg/kg/injection; schedule: Q01DX009 (ip); vehicle: Klucel (hydroxypropylcellulose) (HPC); higher = longer survival
Inconclusive results and toxic doses are left out.
MEASUREMENT TYPE: T/C

Some molecules with recorded T/C:
molecule="CCOC(CNC(C)c1ccc2cc(OC)c(OC)cc2c1)OCC (centres undefined)" measurement_type=T/C value="97 % of control"
molecule=Cc1ccc2c(c1)C(=O)N(CC[P+](c1ccccc1)(c1ccccc1)c1ccccc1)C2=O measurement_type=T/C value="101 % of control"
molecule=Clc1ncnc2c1ncn2CCCn1cnc2c(Cl)ncnc21 measurement_type=T/C value="94 % of control"

# input for lookup
IN: Query (molecule): S=P(c1ccccc1)(N1CC1)N1CC1 ; field requested: T/C
OUT: 102 % of control

* * *

# Tested on: CD2F1 mice, L1210 leukemia ip, survival T/C
# MEASUREMENT NOTES: NCI In Vivo Anticancer Drug Screen. Data for tumor model L1210 Leukemia (intraperitoneal) in CD2F1 (CDF1) mice
# ASSAY CONTEXT: endpoint: mean survival time; dose: 50.0 mg/kg/injection; schedule: Q01DX001 (ip); vehicle: Klucel (hydroxypropylcellulose) (HPC); higher = longer survival
Toxic doses and inconclusive results are not listed.
MEASUREMENT TYPE: T/C

compound=Cc1ccc(Nc2nc(N)nc(N)c2N=O)cc1C tested_on="CD2F1 mice, L1210 leukemia ip, survival T/C" value="90 % of control"

IN: Lab request: please report T/C under test system CD2F1 mice, L1210 leukemia ip, survival T/C for CCOC(=O)Nc1cc2c(c(N)n1)N=C(CCc1ccccc1)CN2
OUT: 114 % of control

IN: Lab request: please report T/C under test system CD2F1 mice, L1210 leukemia ip, survival T/C for CC(CC(=O)c1ccccc1)=Nc1ccccc1.CC(CC(=O)c1ccccc1)=Nc1ccccc1.[O]=[V]
OUT: 96 % of control

IN: Lab request: please report T/C under test system CD2F1 mice, L1210 leukemia ip, survival T/C for CCOC(=O)C(=O)C(C#N)c1ccccc1 (centres undefined)
OUT: 100 % of control

* * *

Recorded T/C values for a group of compounds are listed next.
# Tested on: CD2F1 mice, L1210 leukemia ip, survival T/C
# MEASUREMENT NOTES: NCI In Vivo Anticancer Drug Screen. Data for tumor model L1210 Leukemia (intraperitoneal) in CD2F1 (CDF1) mice
# ASSAY CONTEXT: endpoint: mean survival time; dose: 100.0 mg/kg/injection; schedule: Q01DX009 (ip); vehicle: saline with Tween-80; higher = longer survival
Toxic doses and inconclusive results are not listed.

Some compounds with recorded T/C:
compound=CNC(=O)Nc1ccncc1 measurement_type=T/C value="97 % of control"
compound="FC(F)(F)C(Cl)Br (centres undefined)" measurement_type=T/C value="98 % of control"
compound=CC(C)(CCC(=O)O)c1cccc(Cl)c1 measurement_type=T/C value="93 % of control"
compound="C/C=C/COC1CCS(=O)(=O)C1 (centres undefined)" measurement_type=T/C value="97 % of control"

IN: Query (compound): CC(=O)c1cccc(OC(=O)c2ccccc2)c1 ; field requested: T/C
OUT: 97 % of control

IN: Query (compound): O=C(O)CCC(=O)c1ccc(Br)cc1 ; field requested: T/C
OUT: 94 % of control

IN: Query (compound): O=C(c1ccc(Cl)cc1)C1CC(Br)C(Br)CC1C(=O)c1ccc(Cl)cc1 (centres undefined) ; field requested: T/C
OUT: 96 % of control

* * *

Recorded T/C values for a group of compounds are listed next.
# Tested on: CD2F1 mice, L1210 leukemia ip, survival T/C
# MEASUREMENT NOTES: NCI In Vivo Anticancer Drug Screen. Data for tumor model L1210 Leukemia (intraperitoneal) in CD2F1 (CDF1) mice
# ASSAY CONTEXT: endpoint: mean survival time; dose: 200.0 mg/kg/injection; schedule: Q04DX003 (ip); vehicle: other; higher = longer survival
Toxic doses and inconclusive results are not listed.

compound="CCCCCCCCCCCCCC[N+]1(C)CCC[N+](C)(CCCCCCCCCCCCCC)CC1 (centres undefined)" measurement_type=T/C value="88 % of control"
compound=FC(F)(F)C1(C(F)(F)F)C/C(=N/Nc2ccccc2)CO1 measurement_type=T/C value="101 % of control"

IN: Query (compound): O=C(O)C1CCC=CCC1 ; field requested: T/C
OUT: 94 % of control

IN: Query (compound): O=C(O)/C=N/NS(=O)(=O)Cc1ccccc1 ; field requested: T/C
OUT: 122 % of control

* * *

Recorded T/C values for a group of compounds are listed next.
# Test system: CD2F1 mice, L1210 leukemia ip, survival T/C
# MEASUREMENT NOTES: NCI In Vivo Anticancer Drug Screen. Data for tumor model L1210 Leukemia (intraperitoneal) in CD2F1 (CDF1) mice
# ASSAY CONTEXT: endpoint: mean survival time; dose: 200.0 mg/kg/injection; schedule: Q04DX002 (ip); vehicle: Klucel (hydroxypropylcellulose) (HPC); higher = longer survival
Toxic doses and inconclusive results are not listed.

Some compounds with recorded T/C:
smiles_str=CC1(C)N=C(N)N=C(N)N1c1cccc(/C=C/c2ccc([N+](=O)[O-])cc2)c1 value="107 % of control"
smiles_str=Nc1nnc(C(F)(F)F)s1 value="101 % of control"
smiles_str=BrCc1c2ccccc2c(CBr)c2c1ccc1ccccc12 value="117 % of control"
smiles_str=CC1CCN(N=Nc2ccccc2-c2nc(N)c3ccccc3n2)CC1 value="109 % of control"

IN: Lab request: please report T/C under test system CD2F1 mice, L1210 leukemia ip, survival T/C for C=CC(=O)Nc1ccccc1
OUT: 97 % of control
